Catalogue of inhibition at 5 µM values
TARGET_DESC: CYP4A (Homo sapiens)
Construct: purchased; host or cells: bacterial membranes ('bactosome')
PROCEDURE_SUMMARY: CYP4A enzyme assay (luminescence, Luciferin-ME)
Format: biochemical
MEASUREMENT_PARAMETERS: Compound concentration 5 μM; Less than 50%; read-out: % Inhibition Less than 50%

Illustrative cases are given below, each with its answer.
O=C(C1CCCN(C(=O)C2CCCCC2)C1)N1CCN(c2cc(C(F)(F)F)nc3ccccc23)CC1 (stereo not shown)
< 50%
Cc1ccc(S(=O)(=O)N2CCCC(C(=O)N3CCN(c4nc(C)nc5ccccc45)CC3)C2)cc1 (stereo not shown)
< 50%

Lookup result for Cc1cc(N2CCN(C(=O)C3CCCN(C(=O)C4CCCCC4)C3)CC2)c2ccccc2n1 (stereo not shown) ; measured inhibition at 5 µM: < 50%

Lookup result for O=C(C1CCCN(C(=O)C2CCCCC2)C1)N1CCN(c2ccnc3ccccc23)CC1 (stereo not shown) ; measured inhibition at 5 µM: < 50%

---

TARGET_DESC: CYP4A (Homo sapiens, UniProt Q02928)
Construct: purchased; host or cells: bacterial membranes ('bactosome')
Sequence (Q02928 5-519): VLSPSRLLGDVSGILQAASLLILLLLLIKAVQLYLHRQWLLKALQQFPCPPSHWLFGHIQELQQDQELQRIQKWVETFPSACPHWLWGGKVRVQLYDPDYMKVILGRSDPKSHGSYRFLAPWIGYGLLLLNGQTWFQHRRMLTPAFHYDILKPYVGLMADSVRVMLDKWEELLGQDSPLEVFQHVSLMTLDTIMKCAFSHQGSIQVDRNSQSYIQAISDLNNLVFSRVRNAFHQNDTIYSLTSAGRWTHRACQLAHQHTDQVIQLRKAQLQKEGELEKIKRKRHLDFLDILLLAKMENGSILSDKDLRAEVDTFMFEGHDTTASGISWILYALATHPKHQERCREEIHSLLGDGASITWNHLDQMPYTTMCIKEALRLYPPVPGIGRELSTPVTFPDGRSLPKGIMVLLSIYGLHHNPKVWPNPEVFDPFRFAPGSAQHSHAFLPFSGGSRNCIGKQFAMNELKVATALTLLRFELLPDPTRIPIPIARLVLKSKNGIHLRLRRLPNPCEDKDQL
PROCEDURE_SUMMARY: CYP4A enzyme assay (luminescence, Luciferin-ME)
Assay type: biochemical
MEASUREMENT_PARAMETERS: Compound concentration 5 μM; 50%-70%; read-out: % Inhibition 50%-70%
Catalogue of inhibition at 5 µM values

COc1ccc2c(N3CCN(C(=O)C4CCCN(C(=O)C5CCCCC5)C4)CC3)ccnc2c1 (stereo not shown)
50 to 70%
O=C(C1CCCN(S(=O)(=O)C2CC2)C1)N1CCN(c2ccnc3ccccc23)CC1 (stereo not shown)
50 to 70%
O=C(C1CCCN(S(=O)(=O)c2cccnc2)C1)N1CCN(c2cc(C(F)(F)F)nc3ccccc23)CC1 (stereo not shown)
50 to 70%

Lookup result for COc1ccc(C(=O)N2CCCC(C(=O)N3CCN(c4cc(C(F)(F)F)nc5ccccc45)CC3)C2)cc1 (stereo not shown) ; measured inhibition at 5 µM: 50 to 70%

Lookup result for CC(=O)Nc1ccc(C(=O)N2CCCC(C(=O)N3CCN(c4cc(C(F)(F)F)nc5ccccc45)CC3)C2)cc1 (stereo not shown) ; measured inhibition at 5 µM: 50 to 70%

Lookup result for O=C(C1CCCN(S(=O)(=O)c2ccco2)C1)N1CCN(c2ccnc3cc(Cl)ccc23)CC1 (stereo not shown) ; measured inhibition at 5 µM: 50 to 70%

Lookup result for Cc1cc(N2CCN(C(=O)C3CCCN(S(=O)(=O)c4cccnc4)C3)CC2)c2ccccc2n1 (stereo not shown) ; measured inhibition at 5 µM: 50 to 70%
